system: phenylephrine-precontracted rat aortic rings; assay: Isometric tension studies: relaxation of phenylephrine-precontracted rat aortic rings; conditions: High Glucose (25 mM)
readout: EC50 (nM)
Output spec: scalar in nM, unitless text.

Please report the recorded EC50 for CCCOc1ccc(S(=O)(=O)N2CCC(CCO)CC2)cc1-c1nn2c(CCC)c(/C=N/O)c(C)c2c(=O)[nH]1 . 2.79

====

biological target: human phosphodiesterase-5 (PDE5 enzyme isolated from human platelets) (Homo sapiens (Human), UniProt O76074); assay: PDE5 assay: formation of 5′GMP from cGMP (SPA); settings: 5.0E−09M; percent inhibition of the control enzyme activity
Please go through the items and note down their % inhibition at 5.0E−09M.
Output spec: scalar in %, unitless text.

Please report the recorded % inhibition at 5.0E−09M for CCCOc1ccc(S(=O)(=O)N2CCC(CCO[N+](=O)[O-])CC2)cc1-c1nn2c(CCC)c(/C=N\O)c(C)c2c(=O)[nH]1 . 1.3

Please report the recorded % inhibition at 5.0E−09M for CCCc1c(/C=N/O)c(C)c2c(=O)[nH]c(-c3cc(S(=O)(=O)N4CCN(C)CC4)ccc3OCC)nn12 . 77.6

Please report the recorded % inhibition at 5.0E−09M for CCCOc1ccc(S(=O)(=O)N2CCN(C)CC2)cc1-c1nn2c(CCC)c(/C=N/OC)c(C)c2c(=O)[nH]1 . 83.0

Please report the recorded % inhibition at 5.0E−09M for CCCc1c(C=O)c(C)c2c(=O)[nH]c(-c3cc(S(=O)(=O)N4CCN(CCO)CC4)ccc3OCC)nn12 . 75.5

Cited source for all entries: patent US11242347B2
